Give inhibition for every item shown.
target_or_test_system: Adenosine receptor A1 (Homo sapiens) (UniProt P30542)
Sequence (P30542 whole entry): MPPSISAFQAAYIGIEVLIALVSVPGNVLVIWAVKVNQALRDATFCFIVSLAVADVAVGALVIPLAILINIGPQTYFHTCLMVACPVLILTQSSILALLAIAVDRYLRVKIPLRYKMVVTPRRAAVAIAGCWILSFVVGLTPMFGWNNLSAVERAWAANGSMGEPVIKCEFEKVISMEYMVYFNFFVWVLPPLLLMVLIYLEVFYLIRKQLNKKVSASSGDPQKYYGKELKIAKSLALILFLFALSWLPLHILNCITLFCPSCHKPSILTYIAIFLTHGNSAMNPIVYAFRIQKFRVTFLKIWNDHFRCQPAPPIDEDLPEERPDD
test_summary: Displacement of [3H]DPCPX from human adenosine A1 receptor expressed in CHO cell membranes at 1 uM after 60 mins
Report as: number unit

Please review the entries below; each comes with its answer.
| compound | inhibition |
| --- | --- |
| CC1=C(C(=O)OC(C)C)C(c2ccoc2)N/C(=N/C#N)N1 (racemic) | 34% |
| CCOC(=O)C1=C(C)N/C(=N\C#N)NC1c1ccsc1 (racemic) | 29% |
| CCOC(=O)C1=C(C)NC(=O)NC1c1cccs1 (stereo unspecified) | 1% |

Each of the following entries comes with a recorded value; kindly state inhibition for each.
1. CCOC(=O)C1=C(C)NC(=O)NC1C1CCCC1 (stereo unspecified)
2. CC1=C(C(=O)OC(C)C)C(c2ccco2)NC(=O)N1 (stereo unspecified)
3. CCOC(=O)C1=C(C)N/C(=N\C#N)NC1c1cccs1 (racemic)

1: 3%; 2: 20%; 3: 26%
